DC50 overview
targetDesc: GSPT1 (Homo sapiens, UniProt P15170+Q96SW2)
Sequence (P15170 whole entry): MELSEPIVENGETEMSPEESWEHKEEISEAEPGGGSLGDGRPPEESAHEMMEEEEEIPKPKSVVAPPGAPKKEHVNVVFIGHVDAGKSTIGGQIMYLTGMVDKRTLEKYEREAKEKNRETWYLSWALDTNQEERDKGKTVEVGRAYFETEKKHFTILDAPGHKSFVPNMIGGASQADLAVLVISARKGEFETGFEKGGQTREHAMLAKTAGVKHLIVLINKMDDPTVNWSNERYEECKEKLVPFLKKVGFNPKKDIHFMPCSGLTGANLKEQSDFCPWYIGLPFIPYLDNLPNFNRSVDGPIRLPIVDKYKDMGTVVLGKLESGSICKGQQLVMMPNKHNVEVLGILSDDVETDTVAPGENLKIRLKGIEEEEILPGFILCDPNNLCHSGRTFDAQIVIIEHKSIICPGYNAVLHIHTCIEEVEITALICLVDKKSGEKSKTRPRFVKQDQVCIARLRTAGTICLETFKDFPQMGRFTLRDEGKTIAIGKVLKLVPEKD
Sequence (Q96SW2 whole entry): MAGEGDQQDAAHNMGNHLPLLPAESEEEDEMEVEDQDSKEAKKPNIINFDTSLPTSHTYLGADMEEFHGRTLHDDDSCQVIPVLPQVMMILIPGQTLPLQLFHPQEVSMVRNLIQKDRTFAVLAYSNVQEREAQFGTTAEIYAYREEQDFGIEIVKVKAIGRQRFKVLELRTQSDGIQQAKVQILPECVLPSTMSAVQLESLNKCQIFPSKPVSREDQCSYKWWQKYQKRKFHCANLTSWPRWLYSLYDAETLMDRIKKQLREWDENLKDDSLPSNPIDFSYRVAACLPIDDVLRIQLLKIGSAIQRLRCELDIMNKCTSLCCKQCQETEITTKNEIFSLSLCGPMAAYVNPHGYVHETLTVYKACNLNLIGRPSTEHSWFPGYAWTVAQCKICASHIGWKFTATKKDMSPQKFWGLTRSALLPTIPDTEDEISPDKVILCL
Sequence (Q16531 whole entry partner): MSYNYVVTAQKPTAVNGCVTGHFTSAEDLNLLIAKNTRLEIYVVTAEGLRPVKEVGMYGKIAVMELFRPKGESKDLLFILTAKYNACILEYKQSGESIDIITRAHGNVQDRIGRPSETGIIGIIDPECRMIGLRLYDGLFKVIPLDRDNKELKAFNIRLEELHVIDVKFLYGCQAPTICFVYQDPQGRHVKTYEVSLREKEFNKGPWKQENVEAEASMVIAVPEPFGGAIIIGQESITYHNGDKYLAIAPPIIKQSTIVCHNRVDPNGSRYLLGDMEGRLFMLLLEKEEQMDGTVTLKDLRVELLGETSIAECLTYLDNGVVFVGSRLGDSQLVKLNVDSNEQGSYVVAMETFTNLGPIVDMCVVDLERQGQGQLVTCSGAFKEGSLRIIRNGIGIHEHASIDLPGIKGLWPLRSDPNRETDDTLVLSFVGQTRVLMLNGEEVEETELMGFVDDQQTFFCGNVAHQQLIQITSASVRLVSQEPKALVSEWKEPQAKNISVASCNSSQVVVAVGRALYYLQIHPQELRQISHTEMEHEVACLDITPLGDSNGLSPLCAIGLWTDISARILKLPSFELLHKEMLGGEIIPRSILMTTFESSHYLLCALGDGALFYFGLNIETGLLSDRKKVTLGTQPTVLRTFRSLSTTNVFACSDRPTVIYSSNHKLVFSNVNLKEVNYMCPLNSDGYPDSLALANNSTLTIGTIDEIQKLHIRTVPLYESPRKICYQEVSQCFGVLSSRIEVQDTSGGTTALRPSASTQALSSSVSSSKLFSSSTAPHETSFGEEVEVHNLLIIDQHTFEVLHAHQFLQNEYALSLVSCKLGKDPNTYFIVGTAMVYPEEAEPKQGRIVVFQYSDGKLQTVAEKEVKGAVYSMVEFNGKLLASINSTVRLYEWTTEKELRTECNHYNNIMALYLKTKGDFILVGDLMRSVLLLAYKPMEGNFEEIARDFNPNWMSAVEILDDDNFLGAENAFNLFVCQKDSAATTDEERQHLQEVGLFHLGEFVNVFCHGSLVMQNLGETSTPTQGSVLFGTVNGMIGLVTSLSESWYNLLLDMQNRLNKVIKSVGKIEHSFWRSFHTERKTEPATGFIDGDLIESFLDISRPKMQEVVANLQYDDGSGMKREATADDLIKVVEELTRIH
protocolText: Immunofluorescence assay for GSPT1 degradation in CAL-Si cells
Format: cell-based
Parameters: CAL-Si cells were purchased from DSMZ (cat. Number ACC302); host or cells: CAL-Si (CAL-51) cells
recordedConditions: 6 hours treatment, read-out: Code: activity for GSPT1 degradation (DC50)

Answered cases to consult:
{"compound": "O=C1CCC(N2Cc3ccc(CCC(=O)N4CCC(Oc5ccccc5)C4)cc3C2=O)C(=O)N1 (centres unmarked) [Compound 21]", "targetDesc": "GSPT1 (Homo sapiens, UniProt P15170+Q96SW2)", "DC50": "> 300 nM"}
{"compound": "CC1(c2ccc(NC(=O)CCc3ccc4c(c3)C(=O)N(C3CCC(=O)NC3=O)C4)cc2)COC1 (centres unmarked) [Compound 55]", "targetDesc": "GSPT1 (Homo sapiens, UniProt P15170+Q96SW2)", "DC50": "> 300 nM"}
{"compound": "CC1(c2ccc(NC(=O)CCc3ccc4c(c3)C(=O)N(C3CCC(=O)NC3=O)C4)cc2)CC1 (centres unmarked) [Compound 58]", "targetDesc": "GSPT1 (Homo sapiens, UniProt P15170+Q96SW2)", "DC50": "30 to 300 nM"}
{"compound": "CN1CCC(COc2cc(Cl)cc(NC(=O)CCc3ccc4c(c3)C(=O)N(C3CCC(=O)NC3=O)C4)c2)C1 (centres unmarked) [Compound 37]", "targetDesc": "GSPT1 (Homo sapiens, UniProt P15170+Q96SW2)", "DC50": "> 300 nM"}

Problem: Tell me its DC50 given O=C1CCC(N2Cc3ccc(CCC(=O)Nc4ccc(C5CC5)cc4)cc3C2=O)C(=O)N1 (centres unmarked) [Compound 38] as the entry.
Solution: > 300 nM

Problem: # return recorded DC50 for entry Cc1c(Cl)cc(NC(=O)CCc2ccc3c(c2)C(=O)N(C2CCC(=O)NC2=O)C3)cc1OCC1CCNC1 (centres unmarked) [Compound 51]
Solution: > 300 nM

Problem: # return recorded DC50 for entry CCc1cc(NC(=O)CCc2ccc3c(c2)C(=O)N(C2CCC(=O)NC2=O)C3)cnc1C (centres unmarked) [Compound 46]
Solution: 30 to 300 nM

Problem: Give reported DC50 value for O=C1CCC(N2Cc3ccc(CCC(=O)Nc4cc(CN5CCOCC5)cc(OC(F)F)c4)cc3C2=O)C(=O)N1 (centres unmarked) [Compound 66]
Solution: 30 to 300 nM

Problem: Hello, please tell me recorded DC50 for this one: CC(C)(C)c1ccc(NC(=O)CCc2ccc3c(c2)C(=O)N(C2CCC(=O)NC2=O)C3)cn1 (centres unmarked) [Compound 41]
Solution: ≤ 30 nM

Problem: State, in one line, measured DC50 of Cc1cc(NC(=O)CCc2ccc3c(c2)C(=O)N(C2CCC(=O)NC2=O)C3)cc(C)n1 (centres unmarked) [Compound 52]
Solution: > 300 nM

Problem: Tell me its DC50 given O=C1CCC(N2Cc3ccc(CCC(=O)Nc4cc(F)cc(Cl)c4)cc3C2=O)C(=O)N1 (centres unmarked) [Compound 18] as the entry.
Solution: > 300 nM

Problem: Identify DC50 associated with the compound COc1cc(NC(=O)CCc2ccc3c(c2)C(=O)N(C2CCC(=O)NC2=O)C3)ccc1C (centres unmarked) [Compound 33]
Solution: 30 to 300 nM

Problem: Give the reported DC50 for this compound. O=C1CCC(N2Cc3ccc(CCC(=O)NC4CCN(c5ccccn5)CC4)cc3C2=O)C(=O)N1 (centres unmarked) [Compound 12]
Solution: > 300 nM

Problem: State, in one line, measured DC50 of Cc1ccc(NC(=O)CCc2ccc3c(c2)C(=O)N(C2CCC(=O)NC2=O)C3)cc1Cl (centres unmarked) [Compound 1]
Solution: ≤ 30 nM

Problem: Could you please provide reported DC50 for Cc1c(Cl)cc(NC(=O)CCc2ccc3c(c2)C(=O)N(C2CCC(=O)NC2=O)C3)cc1CN1CC2CCC(C1)O2 (centres unmarked) [Compound 24] ? Thanks!
Solution: 30 to 300 nM

Problem: State its DC50: O=C1CCC(N2Cc3ccc(CCC(=O)NC4CCCCC4)cc3C2=O)C(=O)N1 (centres unmarked) [Compound 4]
Solution: > 300 nM

Problem: Give the value of DC50 reported for the following: CCOc1cc(NC(=O)CCc2ccc3c(c2)C(=O)N(C2CCC(=O)NC2=O)C3)ccc1C (centres unmarked) [Compound 32]
Solution: 30 to 300 nM

Problem: Read the entry O=C1CCC(N2Cc3ccc(CCC(=O)N4CCCC4)cc3C2=O)C(=O)N1 (centres unmarked) [Compound 15] and write its reported DC50.
Solution: > 300 nM

Problem: Return DC50 for the following compound: O=C1CCC(N2Cc3ccc(CCC(=O)Nc4ccc(-c5ccccc5)nc4)cc3C2=O)C(=O)N1 (centres unmarked) [Compound 34]
Solution: ≤ 30 nM

Problem: // fetch DC50 given entry CCc1cc(NC(=O)CCc2ccc3c(c2)C(=O)N(C2CCC(=O)NC2=O)C3)cc(C)n1 (centres unmarked) [Compound 57]
Solution: > 300 nM

Problem: State its DC50 for this compound: O=C1CCC(N2Cc3ccc(CCC(=O)Nc4ccc(N5CCCCC5)nc4)cc3C2=O)C(=O)N1 (centres unmarked) [Compound 20]
Solution: 30 to 300 nM

The reported numbers originate from patent US20240051937A1.
